# Tgt: human CYP11B1 (Homo sapiens)
# Construct: expressed in transfected cells
# Sequence (P15538 25-503): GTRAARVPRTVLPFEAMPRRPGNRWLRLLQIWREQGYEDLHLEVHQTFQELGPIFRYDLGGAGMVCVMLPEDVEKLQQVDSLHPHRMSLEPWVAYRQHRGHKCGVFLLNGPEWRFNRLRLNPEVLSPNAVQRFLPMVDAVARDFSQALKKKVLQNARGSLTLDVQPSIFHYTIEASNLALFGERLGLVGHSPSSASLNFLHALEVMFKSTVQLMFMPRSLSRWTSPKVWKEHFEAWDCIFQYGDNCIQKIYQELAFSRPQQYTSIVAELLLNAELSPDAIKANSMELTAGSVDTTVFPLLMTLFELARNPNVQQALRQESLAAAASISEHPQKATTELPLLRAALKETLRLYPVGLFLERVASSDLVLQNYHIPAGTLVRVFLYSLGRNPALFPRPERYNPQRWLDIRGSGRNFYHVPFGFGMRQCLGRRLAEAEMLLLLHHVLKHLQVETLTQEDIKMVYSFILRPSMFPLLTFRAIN
# Test summary: IC50 vs CYP11B1 by cortisol synthesis in V79 cells
# Type: cell-based
# Condition parameters: V79 cells expressing human CYP11B1, 1500 nM RSS, cortisol HTRF; test concentrations 0.5-10000 nM
Test readout: IC50 (nM)

// below: answered molecules
- Molecule: "C[C@H](c1ccc(F)cc1)n1cncc1CN1CCN(S(=O)(=O)c2cnc(N3CCN4C[C@H](O)C[C@H]4C3=O)s2)CC1 [Compound 18]"
  IC50 (nM): 2590
- Molecule: "C[C@H](c1ccc(F)cc1)n1cncc1CN1CCN(S(=O)(=O)c2cnc(N3CCN4C[C@H](O)CC[C@H]4C3)s2)CC1 [Compound 19]"
  IC50 (nM): 1850
- Molecule: "C[C@H](c1ccc(F)cc1)n1cncc1CN1CCN(S(=O)(=O)c2cnc(N3CC[C@@H]4NCCO[C@H]4C3)s2)CC1 [Compound 15]"
  IC50 (nM): 1710

[A] C[C@H](c1ccc(F)cc1)n1cncc1CN1CCN(S(=O)(=O)c2cnc(N3CC[C@@H](N)[C@H](F)C3)s2)CC1 [Compound 12]
[B] C[C@H](c1ccc(F)cc1)n1cncc1CN1CCN(S(=O)(=O)c2cnc(N3C[C@@H]4C[C@@H](O)CN4C[C@@H]3C)s2)CC1 [Compound 21]
Consider A and B . Which of these has its IC50 at a higher number? Mark your selection by writing its label. B
(B: 3920 nM, A: 1460 nM)

[I] C[C@H](c1ccc(F)cc1)n1cncc1C1COCC2CN(S(=O)(=O)c3cnc(Nc4ccccn4)s3)CCN21 (some centres unmarked) [Compound 40]
[II] C[C@H](c1ccc(F)cc1)n1cncc1CN1CCN(S(=O)(=O)c2ccc(N3CCNCC3)cn2)CC1 [Compound 28]
Param pair: I , II . Output: the one whose IC50 is numerically greater. Lab log: write the label of the selected item as the result. II
(II: 3550 nM, I: 1150 nM)

[I] C[C@H](c1ccc(F)cc1)n1cncc1CN1CCN(S(=O)(=O)c2cnc(N3CC[C@@H]4OCCN[C@H]4C3)s2)CC1 [Compound 13]
[II] C[C@H](c1ccc(F)cc1)n1cnnc1CN1CCN(S(=O)(=O)c2cnc(N3CCN4C[C@H](O)C[C@H]4C3)s2)CC1 [Compound 42]
[III] CN1CCN(c2ncc(S(=O)(=O)N3CCN(Cc4cncn4CCOc4ccc(F)cn4)CC3)s2)CC1 [Compound 33]
Order each entry by recorded IC50, climbing from the minimum. Respond with the label ranking, as requested. I, III, II
(I: 1560 nM, III: 4750 nM, II: 7800 nM)

[I] CC1CN(c2ncc(S(=O)(=O)N3CCN(Cc4cncn4[C@H](C)c4ccc(F)cc4)CC3)s2)C[C@@H]2C[C@@H](O)CN12 (some centres unmarked) [Compound 23]
[II] C[C@H](c1ccc(F)cc1)n1cncc1CN1CCN(S(=O)(=O)c2cnc(N3CCN4C[C@H](O)CC4(C)C3)s2)CC1 (some centres unmarked) [Compound 24]
Of I and II , which shows the smaller IC50 value? In your reply, give the label of the chosen option. I
(I: 1220 nM, II: 4270 nM)

----------
# Tgt: human CYP11B2 (Homo sapiens, UniProt P19099)
# Sequence (P19099 25-503): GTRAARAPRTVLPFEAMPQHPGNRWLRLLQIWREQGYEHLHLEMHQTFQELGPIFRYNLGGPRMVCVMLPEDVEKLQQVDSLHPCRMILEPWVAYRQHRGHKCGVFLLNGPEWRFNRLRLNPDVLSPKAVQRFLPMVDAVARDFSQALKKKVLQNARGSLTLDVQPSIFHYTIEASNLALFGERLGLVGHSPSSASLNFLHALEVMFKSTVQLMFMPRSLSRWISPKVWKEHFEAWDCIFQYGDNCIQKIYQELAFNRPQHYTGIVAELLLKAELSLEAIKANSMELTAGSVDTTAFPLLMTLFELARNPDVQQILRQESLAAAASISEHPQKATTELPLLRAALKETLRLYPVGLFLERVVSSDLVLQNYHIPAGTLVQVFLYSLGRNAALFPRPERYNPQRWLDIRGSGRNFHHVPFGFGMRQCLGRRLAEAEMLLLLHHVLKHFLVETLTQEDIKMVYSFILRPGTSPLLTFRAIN
# Test summary: IC50 vs CYP11B2 by aldosterone synthesis in V79 cells
# Condition parameters: V79 cells expressing human CYP11B2, 750 nM DOC, aldosterone HTRF; test concentrations 0.5-10000 nM
# Description: Determination of IC50 vs CYP11B1/CYP11B2 by Measurement of Cortisol/Aldosterone Synthesis This assay was performed in a standard 384-well plate design using cultured V79 cells stably expressing human CYP11B1 or human CYP11B2. […] Cortisol/Aldosterone production of cell culture supernatant was determined by Cortisol/Aldosterone HTRF kit after for about 15 hours incubation at RT (protect from light). […] Data are analyzed using Assay Data Analyzer. […]
pIC50: −log10 of the molar value.
Test readout: pIC50

Record excerpt, results attached:
- Compound: "CC(c1cncn1[C@H](C)c1ccc(F)cc1)N1CCN(S(=O)(=O)c2cnc(N3CCN4C[C@H](O)C[C@H]4C3)s2)CC1 (stereo partly drawn)"
  pIC50: 6.71
- Compound: "C[C@H](c1ccc(F)cc1)n1cncc1C1C(=O)OCC2CN(S(=O)(=O)c3cnc(Nc4ccc(C(F)(F)F)cn4)s3)CCN21 (stereo partly drawn)"
  pIC50: 5.61
- Compound: "C[C@H](c1ccc(C#N)cc1)n1cncc1CN1CCN(S(=O)(=O)c2cnc(Nc3ccc(C(F)(F)F)cn3)s2)CC1"
  pIC50: 6.35

[P] C[C@H](c1ccc(F)cc1)n1cncc1CN1CCN(S(=O)(=O)c2cnc(N3CC[C@@H](N4CCOCC4)[C@H](F)C3)s2)CC1
[Q] C[C@H](c1ccc(F)cc1)n1cncc1CN1CCN(S(=O)(=O)c2cnc(N3CCN4C[C@H](O)C[C@H]4C3=O)s2)CC1
Could you kindly indicate whether P or Q has the higher pIC50 value? Reply with the label of the item you choose. P

[A] C[C@H](c1ccc(F)cc1)n1cncc1CN1CCN(S(=O)(=O)c2cnc(N3CC[C@@H](N)[C@H](F)C3)s2)CC1 [Compound 11]
[B] C[C@H](c1ccc(F)cc1)n1cncc1CN1CCN(S(=O)(=O)c2cnc(NCC(F)CN)s2)CC1 (stereo partly drawn)
Between the entries labeled A and B , whose measured pIC50 is lower? When you have decided, please share the label of that item. B
(B: 5.03, A: 5.47)

[I] C[C@H](c1ccc(F)cc1)n1cncc1CN1CCN(S(=O)(=O)c2cnc(N3CCN(C)CC3)s2)CC1
[II] C[C@H](c1ccc(F)cc1)n1cncc1CN1CCN(S(=O)(=O)c2cnc(N3CCN4C(=O)OC[C@H]4C3)s2)CC1
[III] C[C@H](c1ccc(F)cc1)n1cncc1CN1CCN(S(=O)(=O)c2cnc(N3CCN4C[C@H](O)C[C@@H]4C3)s2)CC1
Please list these compounds in decreasing order of pIC50. Response format: the labels, sorted as the prompt asks. I, III, II
(I: 7.11, III: 5.41, II: 5.04)
